The values you see were collected from paper PMC11642486.

Tested on: Primary hippocampal neurons
ASSAY DETAILS: Cell viability assay (CellTiter-Glo) in neurons
Format: cell-based, Wistar rats
ASSAY SETUP: Rattus norvegicus, Hippocampal neuron, 24 h, neurons, 24 h; concentration diminishing cell viability by 50% vs vehicle; read-out: IC50 (cell viability)
pIC50: −log10 of the molar value. Where a name gives a salt, the structure may show the parent alone.

- COMPOUND: "COC(=O)/C=C/C(=O)OC [DMF, Dimethyl fumarate]"
  pIC50: 3.99
- COMPOUND: "COC(=O)/C=C/C(=O)O [MMF, monomethyl fumarate]"
  pIC50: 4.17

###

System: BV-2 immortalized murine cell line (microglia)
ASSAY DETAILS: Cell viability assay (CellTiter-Glo) in microglia
Format: cell-based
ASSAY SETUP: Mus musculus, Microglia, 48 h, read-out: IC50 (cell viability), microglia, 48 h; concentration inhibiting cellular proliferation by 50% vs vehicle
pIC50: −log10 of the molar value.

- COMPOUND: "C=C(C)[C@@H]1CCC(C)=C[C@H]1c1c(O)cc(CCCCC)cc1O [CBD, cannabidiol]"
  TEST TARGET: "BV-2 immortalized murine cell line (microglia)"
  pIC50: 4.92

###

Tested on: BV-2 immortalized murine cell line (microglia)
ASSAY DETAILS: Cell viability assay (CellTiter-Glo) in microglia
Assay type: cell-based
ASSAY SETUP: Mus musculus, Microglia, 72 h, microglia, 72 h; concentration inhibiting cellular proliferation by 50% vs vehicle; read-out: IC50 (cell viability)
Description: Cell viability was measured at 24, 48, and 72 h of treatment with different drug concentration ranges. For each cellular type, we determined the half-maximal inhibitory concentration (IC50) of each drug. […] Neurons and microglia were both seeded at a density of 10,000 cells/well in 96-well plates previously treated with 0.1 mg/mL of poly-L-lysine (Sigma-Aldrich). […] Cell viability was determined at 24, 48, and 72 h. […]
pIC50: −log10 of the molar value. Where a name gives a salt, the structure may show the parent alone.

- COMPOUND: "COC(=O)/C=C/C(=O)OC [DMF, Dimethyl fumarate]"
  pIC50: 4.14
- COMPOUND: "COC(=O)/C=C/C(=O)O [MMF, monomethyl fumarate]"
  pIC50: 4.25

###

System: Primary hippocampal neurons
ASSAY DETAILS: Cell viability assay (CellTiter-Glo) in neurons
Format: cell-based, Wistar rats
ASSAY SETUP: Rattus norvegicus, Hippocampal neuron, 48 h, read-out: IC50 (cell viability), neurons, 48 h; concentration diminishing cell viability by 50% vs vehicle

- MOLECULE: "C=C(C)[C@@H]1CCC(C)=C[C@H]1c1c(O)cc(CCCCC)cc1O [CBD, cannabidiol]"
  IC50 [µM]: 13.6

###

Test system: Primary hippocampal neurons
ASSAY DETAILS: Cell viability assay (CellTiter-Glo) in neurons
Format: cell-based, Wistar rats
ASSAY SETUP: neurons, 72 h; concentration diminishing cell viability by 50% vs vehicle; read-out: IC50 (cell viability)
Structures can show the parent of a compound that is named as a salt.
READOUT TYPE: IC50 (µM)

- COMPOUND: "COC(=O)/C=C/C(=O)OC [DMF, Dimethyl fumarate]"
  ASSAY RESULT: 36
- COMPOUND: "COC(=O)/C=C/C(=O)O [MMF, monomethyl fumarate]"
  ASSAY RESULT: 55

###

Each record here notes measured IC50.
Test system: Primary hippocampal neurons
ASSAY DETAILS: Cell viability assay (CellTiter-Glo) in neurons
Assay type: cell-based, Wistar rats
ASSAY SETUP: Rattus norvegicus, Hippocampal neuron, 48 h, neurons, 48 h; concentration diminishing cell viability by 50% vs vehicle; read-out: IC50 (cell viability)
Protocol: Cell viability was measured at 24, 48, and 72 h of treatment with different drug concentration ranges. For each cellular type, we determined the half-maximal inhibitory concentration (IC50) of each drug. Primary hippocampal neurons were obtained from Wistar rats on embryonic day 18. […] Neurons and microglia were both seeded at a density of 10,000 cells/well in 96-well plates previously treated with 0.1 mg/mL of poly-L-lysine (Sigma-Aldrich). […] Cell viability was determined at 24, 48, and 72 h. […]
Where a name gives a salt, the structure may show the parent alone.
READOUT TYPE: IC50 (µM)

- MOLECULE: "COC(=O)/C=C/C(=O)O [MMF, monomethyl fumarate]"
  READOUT UNITS: "µM"
  ASSAY RESULT: 42.5
- MOLECULE: "COC(=O)/C=C/C(=O)OC [DMF, Dimethyl fumarate]"
  READOUT UNITS: "µM"
  ASSAY RESULT: 54.5

###

Tested on: Primary hippocampal neurons
ASSAY DETAILS: Cell viability assay (CellTiter-Glo) in neurons
Assay type: cell-based, Wistar rats
ASSAY SETUP: Rattus norvegicus, Hippocampal neuron, 72 h, neurons, 72 h; concentration diminishing cell viability by 50% vs vehicle; read-out: IC50 (cell viability)
Procedure: Cell viability was measured at 24, 48, and 72 h of treatment with different drug concentration ranges. For each cellular type, we determined the half-maximal inhibitory concentration (IC50) of each drug. Primary hippocampal neurons were obtained from Wistar rats on embryonic day 18. […] Neurons and microglia were both seeded at a density of 10,000 cells/well in 96-well plates previously treated with 0.1 mg/mL of poly-L-lysine (Sigma-Aldrich). […] Cell viability was determined at 24, 48, and 72 h. […]
pIC50: −log10 of the molar value. Counter-ions that a name gives are not always drawn.

- COMPOUND: "COC(=O)/C=C/C(=O)OC [DMF, Dimethyl fumarate]"
  pIC50: 4.44
- COMPOUND: "COC(=O)/C=C/C(=O)O [MMF, monomethyl fumarate]"
  pIC50: 4.25

###

Tested on: BV-2 immortalized murine cell line (microglia)
ASSAY DETAILS: Cell viability assay (CellTiter-Glo) in microglia
Assay type: cell-based
ASSAY SETUP: Mus musculus, Microglia, 72 h, read-out: IC50 (cell viability), microglia, all of the studied timepoints (24, 48, 72 h)
READOUT TYPE: IC50

- MOL: "C=C(C)[C@@H]1CCC(C)=C[C@H]1c1c(O)cc(CCCCC)cc1O"
  READOUT TYPE: "IC50"
  ASSAY RESULT: "~12 µM"
